- assaySummary: Serum levels of phorate, its metabolites and PAM in the poisoned patient (LC-MS)
- Type: in vivo, human
- experimentalConditions: human, in vivo; patient, day 12
experimentalEndpoint: concentration at 12 day
Report field: quantity (unit follows the number).

Record request: concentration at 12 day value, item "CCOP(=O)(OCC)SCS(=O)(=O)CC"
33.3 ng/mL

Entry under review: CCOP(=S)(OCC)SCS(=O)(=O)CC [phorate sulfone] . Reported concentration at 12 day?
14.8 ng/mL

What concentration at 12 day value was documented for this compound, CCOP(=S)(OCC)SC[S+]([O-])CC (stereo not drawn) [phorate sulfoxide] ?
18.1 ng/mL

---

- assaySummary: Serum levels of phorate, its metabolites and PAM in the poisoned patient (LC-MS)
- Type: in vivo, human
- experimentalConditions: human, in vivo; patient, day 3
What concentration at 3 day was measured for each of the following?
Just the number please, in ng/mL, no unit attached.

I'd like to know its concentration at 3 day. The compound in question is CCOP(=S)(OCC)SC[S+]([O-])CC (stereo not drawn) [phorate sulfoxide]
21.2

Given the entry CCOP(=S)(OCC)SCS(=O)(=O)CC [phorate sulfone] , report its measured concentration at 3 day.
191

What does the record list as concentration at 3 day for "CCOP(=O)(OCC)SCS(=O)(=O)CC" ?
221

---

- assaySummary: Serum levels of phorate, its metabolites and PAM in the poisoned patient (LC-MS)
- Assay type: in vivo, human
- experimentalConditions: human, in vivo; patient, day 7 (HP suspended)
experimentalEndpoint: concentration at 7 day (ng/mL)
Please reply with the bare figure in ng/mL and do not write the unit itself.

Which concentration at 7 day is listed for CCOP(=S)(OCC)SCS(=O)(=O)CC [phorate sulfone] ?
30.7

Param item = "CCOP(=O)(OCC)SCS(=O)(=O)CC" ; retrieve measured concentration at 7 day.
65.2

What measured concentration at 7 day goes with CCOP(=S)(OCC)SC[S+]([O-])CC (stereo not drawn) [phorate sulfoxide] ?
35.2

---

- assaySummary: Serum levels of phorate, its metabolites and PAM in the poisoned patient (LC-MS)
- Format: in vivo, human
- experimentalConditions: seventh-10th day, family rejected HP
- Text: LC-MS was used to detect atropine,PAM,phorate and its metabolites. Ultra-high-pressure liquid chromatography-tandem mass spectrometry on a Sciex Triple TOFTM 5600+ mass spectrometer was used for toxic metabolites terminology screening. Ultra-high-pressure liquid chromatography-tandem mass spectrometry on a Sciextriplequad5500 mass spectrometer was used to detect target analytes quantitatively. […]
experimentalEndpoint: change of serum level while HP was stopped

molecule: CCOP(=O)(OCC)SCSCC
measuredResult: gradually fell

molecule: CCOP(=O)(OCC)SCS(=O)(=O)CC
measuredResult: gradually fell

molecule: CCOP(=O)(OCC)SC[S+]([O-])CC (centres unmarked) [phoratoxon sulfoxide]
measuredResult: gradually fell

---

- assaySummary: Serum levels of phorate, its metabolites and PAM in the poisoned patient (LC-MS)
- Assay type: in vivo, human
- experimentalConditions: human, in vivo; patient, day 10 (HP suspended)
experimentalEndpoint: concentration at 10 day (ng/mL)
The answer is to be given in ng/mL; state only the numeric part.

Which concentration at 10 day value is on record for CCOP(=S)(OCC)SCS(=O)(=O)CC [phorate sulfone] ?
31

Any idea what its concentration at 10 day is? The compound is "CCOP(=O)(OCC)SCS(=O)(=O)CC"
44.9

Give the measured concentration at 10 day of CCOP(=S)(OCC)SC[S+]([O-])CC (stereo not drawn) [phorate sulfoxide] .
80.2
